Tested on: SK-N-BE(2)-M17
Experiment: Cytotoxicity against human SK-N-BE(2)-M17 cells at 100 uM 24 hrs by LDH release assay
Assay type: cell-based
Settings: sk-n-be(2)-m17, 24 h
readout type: Activity

Examples from the recorded data:
INSERT INTO assay_data (structure_smiles_string, recorded_measurement) VALUES
  ('CC(=O)N(O)CCCCCNC(=O)CCC(=O)N(O)CCCCCNC(=O)CCC(=O)N(O)CCCCCNC(=O)C12CC3CC(C)(CC(C)(C3)C1)C2', 'Non-Toxic'),
  ('CC(=O)N(O)CCCCCNC(=O)CCC(=O)N(O)CCCCCNC(=O)CCC(=O)N(O)CCCCCNC(=O)C12CC3CC(CC(Cl)(C3)C1)C2', 'Non-Toxic'),
  ('CC(=O)N(O)CCCCCNC(=O)CCC(=O)N(O)CCCCCNC(=O)CCC(=O)N(O)CCCCCNC(=O)CC12CC3CC(CC(O)(C3)C1)C2', 'Non-Toxic'),
  ('CC(=O)N(O)CCCCCNC(=O)CCC(=O)N(O)CCCCCNC(=O)CCC(=O)N(O)CCCCCNC(=O)CC12CC3CC(C)(CC(C)(C3)C1)C2', 'Non-Toxic'),
  ('CC(=O)N(O)CCCCCNC(=O)CCC(=O)N(O)CCCCCNC(=O)CCC(=O)N(O)CCCCCNC(=O)[C@H]1C[C@H]2C=C[C@H]1C2', 'Non-Toxic');

Attention now shifts to the item below.
Using known records, supply Activity for CC(=O)N(O)CCCCCNC(=O)CCC(=O)N(O)CCCCCNC(=O)CCC(=O)N(O)CCCCCNC(=O)C12CC3(C)CC(C)(CC(C)(C3)C1)C2
Non-Toxic

###

Experiment: Binding affinity to Fe3+ assessed as change in retention time for compound-Fe3+ complex by RP-HPLC analysis relative to free ligand
Listed below: Retention time values for each entry.
Number only, in min; omit the unit.

INSERT INTO assay_data (compound, recorded_measurement) VALUES
  ('CC(=O)N(O)CCCCCNC(=O)CCC(=O)N(O)CCCCCNC(=O)CCC(=O)N(O)CCCCCNC(=O)C12CC3CC(CC1C3)C2', 0.48),
  ('CC(=O)N(O)CCCCCNC(=O)CCC(=O)N(O)CCCCCNC(=O)CCC(=O)N(O)CCCCCN [DEFEROXAMINE]', -0.52),
  ('CC(=O)N(O)CCCCCNC(=O)CCC(=O)N(O)CCCCCNC(=O)CCC(=O)N(O)CCCCCNC(=O)C1CCCCC1', -0.04),
  ('CC(=O)N(O)CCCCCNC(=O)CCC(=O)N(O)CCCCCNC(=O)CCC(=O)N(O)CCCCCNC(=O)C12CC3CC(CC(Br)(C3)C1)C2', 0.91),
  ('CC(=O)N(O)CCCCCNC(=O)CCC(=O)N(O)CCCCCNC(=O)CCC(=O)N(O)CCCCCNC(=O)C[C@H]1C[C@H]2CC[C@H]1C2 (relative stereo)', 0.27);

Please give the documented Retention time of CC(=O)N(O)CCCCCNC(=O)CCC(=O)N(O)CCCCCNC(=O)CCC(=O)N(O)CCCCCNC(=O)C12CC3CC(C)(CC(C)(C3)C1)C2
1.06

###

Test: Binding affinity to Fe3+ in ferric ammonium citrate loaded C57BL6/J mouse brain primary astrocytes assessed as iron depletion at 100 uM treated 2 hrs post 125 uM FAC loading measured after 2 hrs by ICP-MS analysis
Type: cell-based
The source made the active and inactive calls. No cut-off for these calls is given here.
Pick one and only one: active, inactive

INSERT INTO measurements (compound, answer_label) VALUES
  ('CC(=O)N(O)CCCCCNC(=O)CCC(=O)N(O)CCCCCNC(=O)CCC(=O)N(O)CCCCCNC(=O)CC12CC3CC(C)(CC(C)(C3)C1)C2', 'active'),
  ('CC(=O)N(O)CCCCCNC(=O)CCC(=O)N(O)CCCCCNC(=O)CCC(=O)N(O)CCCCCN', 'inactive'),
  ('CC(=O)N(O)CCCCCNC(=O)CCC(=O)N(O)CCCCCNC(=O)CCC(=O)N(O)CCCCCNC(=O)C1CCCCC1', 'active');

Pending compound:
In this assay, the call recorded for CCCCC[C@]12CC[C@@H](CC1)[C@@H](C(=O)NCCCCCN(O)C(=O)CCC(=O)NCCCCCN(O)C(=O)CCC(=O)NCCCCCN(O)C(C)=O)C2 (relative stereo) was what?
active

###

Test: Binding affinity to Fe3+ assessed as change in retention time for compound-Fe3+ complex by RP-HPLC analysis relative to free ligand
Record true whenever Retention time is at 0.4 min or higher; record false when lower.

Solved entries:
INSERT INTO results (compound, answer_label) VALUES
  ('CC(=O)N(O)CCCCCNC(=O)CCC(=O)N(O)CCCCCNC(=O)CCC(=O)N(O)CCCCCNC(=O)C12CC3CC(CC(Cl)(C3)C1)C2', 'true'),
  ('CC(=O)N(O)CCCCCNC(=O)CCC(=O)N(O)CCCCCNC(=O)CCC(=O)N(O)CCCCCNC(=O)C12CC3CC(C1)CC(c1ccc([N+](=O)[O-])cc1)(C3)C2', 'true'),
  ('CCCCC[C@]12CC[C@@H](CC1)[C@@H](C(=O)NCCCCCN(O)C(=O)CCC(=O)NCCCCCN(O)C(=O)CCC(=O)NCCCCCN(O)C(C)=O)C2 (relative stereo)', 'true');

Test whether the compound CC(=O)N(O)CCCCCNC(=O)CCC(=O)N(O)CCCCCNC(=O)CCC(=O)N(O)CCCCCNC(=O)C1CC2CCCC(C2)C1 (stereo unspecified) records Retention time of 0.4 min or higher.
true

# check: Retention time of CC(=O)N(O)CCCCCNC(=O)CCC(=O)N(O)CCCCCNC(=O)CCC(=O)N(O)CCCCCNC(=O)C12CC3CC(CC(C3)C1)C2 is greater than or equal to 0.4 min
true

Determine whether this compound has Retention time no lower than 0.4 min: CC(=O)N(O)CCCCCNC(=O)CCC(=O)N(O)CCCCCNC(=O)CCC(=O)N(O)CCCCCNC(=O)CC12CC3CC(CC(O)(C3)C1)C2
false

###

System: SK-N-BE(2)-M17
Assay: Cytoprotection against PQ-induced cell death in human SK-N-BE(2)-M17 cells assessed as increase in cell viability at 100 uM pretreated for 2 hrs followed by 1 mM PQ addition measured after 24 hrs by MTT assay
Assay type: functional, cell-based
Active and inactive are the calls of the source. The calls are words filed in the database; no cut-off is given here.
// classify into Yes = active, No = inactive

// known answers, use as guide
INSERT INTO results (compound, answer_label) VALUES
  ('CC(=O)N(O)CCCCCNC(=O)CCC(=O)N(O)CCCCCNC(=O)CCC(=O)N(O)CCCCCNC(=O)C1CCCCC1', 'No'),
  ('CC(=O)N(O)CCCCCNC(=O)CCC(=O)N(O)CCCCCNC(=O)CCC(=O)N(O)CCCCCNC(=O)C12CC3(C)CC(C)(CC(C)(C3)C1)C2', 'Yes'),
  ('CCCCC[C@]12CC[C@@H](CC1)[C@@H](C(=O)NCCCCCN(O)C(=O)CCC(=O)NCCCCCN(O)C(=O)CCC(=O)NCCCCCN(O)C(C)=O)C2 (relative stereo)', 'Yes'),
  ('CC(=O)N(O)CCCCCNC(=O)CCC(=O)N(O)CCCCCNC(=O)CCC(=O)N(O)CCCCCNC(=O)C12CC3CC(C)(CC(C)(C3)C1)C2', 'Yes'),
  ('CC(=O)N(O)CCCCCNC(=O)CCC(=O)N(O)CCCCCNC(=O)CCC(=O)N(O)CCCCCNC(=O)[C@H]1C[C@H]2C=C[C@H]1C2', 'Yes'),
  ('CC(=O)N(O)CCCCCNC(=O)CCC(=O)N(O)CCCCCNC(=O)CCC(=O)N(O)CCCCCNC(=O)C[C@H]1C[C@H]2CC[C@H]1C2 (relative stereo)', 'Yes');

Turning now to a further record.
Outcome logged for CC(=O)N(O)CCCCCNC(=O)CCC(=O)N(O)CCCCCNC(=O)CCC(=O)N(O)CCCCCNC(=O)C12CC3CC(CC(Br)(C3)C1)C2 in this assay:
No

###

Assay: Binding affinity to Fe3+ assessed as [M+H]+ adduct formation by LC-MS/MS analysis
The source made the active and inactive calls. The rule behind the calls is not given here.
readout type: Activity

INSERT INTO assay_data (compound, readout_type, recorded_measurement) VALUES
  ('CC(=O)N(O)CCCCCNC(=O)CCC(=O)N(O)CCCCCNC(=O)CCC(=O)N(O)CCCCCNC(=O)C12CC3CC(CC(C3)C1)C2', 'Activity', 'Active'),
  ('CC(=O)N(O)CCCCCNC(=O)CCC(=O)N(O)CCCCCNC(=O)CCC(=O)N(O)CCCCCNC(=O)[C@H]1C[C@H]2CC[C@H]1C2 (relative stereo)', 'Activity', 'Active'),
  ('CC(=O)N(O)CCCCCNC(=O)CCC(=O)N(O)CCCCCNC(=O)CCC(=O)N(O)CCCCCNC(=O)C12CC3CC(CC1C3)C2', 'Activity', 'Active'),
  ('CC(=O)N(O)CCCCCNC(=O)CCC(=O)N(O)CCCCCNC(=O)CCC(=O)N(O)CCCCCNC(=O)C[C@H]1C[C@H]2CC[C@H]1C2 (relative stereo)', 'Activity', 'Active');

Check the records and state Activity for CC(=O)N(O)CCCCCNC(=O)CCC(=O)N(O)CCCCCNC(=O)CCC(=O)N(O)CCCCCNC(=O)C12CC3(C)CC(C)(CC(C)(C3)C1)C2
Active

For CC(=O)N(O)CCCCCNC(=O)CCC(=O)N(O)CCCCCNC(=O)CCC(=O)N(O)CCCCCNC(=O)C12CC3CC(CC(Cl)(C3)C1)C2 , write its Activity.
Active
